Entries and their measured TGI follow.
Test system: KM12 colon
ASSAY_SUMMARY: NCI tumour cell line growth inhibition, 48 h

Consider the reported TGI for these compounds:
COMPOUND | TGI
CC(=O)OC12CCCCC1C1(CCCC1)NC2=O (stereo not given) | > 100 µM
O=C(Cc1nc2ccccc2s1)C(=O)Nc1ccccc1C(F)(F)F | > 100 µM
COc1ccc(/C=C2\CN(Cc3cn(CCCNc4ccnc5cc(Cl)ccc45)nn3)C/C(=C\c3ccc(OC)cc3)C2=O)cc1 | 3.39 µM
COC(=O)C1(C(=O)OC)CC2=C(S(=O)(=O)c3ccccc3)C[C@@H](C#N)[C@H]2C1 | > 100 µM

Kindly consider the entry below.
Request: Please tell me the measured TGI for COC(=O)c1ccc2[nH]c3c(c2c1)CC(=O)Nc1ccccc1-3 ; system: KM12 colon.
Result: > 100 µM
